biological target: human B1R receptor (hB1R) (Homo sapiens, UniProt P46663); construct: expressed in transfected cells; host or cells: CHO K1 cells; assay: Functional investigation on the bradykinin 1 receptor (B1R), FLIPR Ca2+ assay, hB1R cells; assay type: cell-based; conditions: test substance 10 μM; CHO K1 cells transfected with human B1R gene; Fluo-4 Ca2+ signal; agonist Lys-Des-Arg9-bradykinin at EC80; % of maximum achievable inhibition; read-out: B1R antagonism, human [10 μM] % inhibition
Sequence (P46663 whole entry): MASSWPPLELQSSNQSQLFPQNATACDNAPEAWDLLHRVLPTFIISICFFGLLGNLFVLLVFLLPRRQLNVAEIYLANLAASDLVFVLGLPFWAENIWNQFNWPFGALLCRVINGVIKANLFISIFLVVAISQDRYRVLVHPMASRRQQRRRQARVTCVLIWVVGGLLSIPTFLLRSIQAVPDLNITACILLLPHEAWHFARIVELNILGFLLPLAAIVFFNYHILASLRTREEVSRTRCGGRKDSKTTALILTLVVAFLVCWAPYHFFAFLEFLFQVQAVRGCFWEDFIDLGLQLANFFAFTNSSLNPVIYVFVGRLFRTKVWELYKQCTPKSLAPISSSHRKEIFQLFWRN
Fulfilled means recorded inhibition at 10 µM is 60% or above; Not fulfilled means it is below 60%.

Here's what some known entries look like.
# compound, system, class
data = [
    ("COc1cc(C)c(S(=O)(=O)N2CCCCC2CCCS(=O)(=O)N2CCC3(CC2)CCC(OCCN2CCCC2)(c2cccnc2)CC3)c(C)c1 (stereo not shown)", "human B1R receptor (hB1R) (Homo sapiens, UniProt P46663)", "Fulfilled"),
    ("COc1cc(C)c(S(=O)(=O)N2CCCCC2CCCS(=O)(=O)N2CCN(C3CCN(C)CC3)CC2)c(C)c1 (stereo not shown)", "human B1R receptor (hB1R) (Homo sapiens, UniProt P46663)", "Fulfilled"),
    ("CN1CCC(N2CCN(S(=O)(=O)CCC[C@@H]3CCCN3S(=O)(=O)CC(c3ccccc3)c3ccccc3)CC2)CC1", "human B1R receptor (hB1R) (Homo sapiens, UniProt P46663)", "Fulfilled"),
    ("CC1(C)CCc2cc(S(=O)(=O)N3CCC[C@H]3CCCS(=O)(=O)N3CCC(Oc4ccncc4)CC3)ccc2O1", "human B1R receptor (hB1R) (Homo sapiens, UniProt P46663)", "Not fulfilled"),
    ("CN1CCC(N2CCN(S(=O)(=O)CCC[C@@H]3CCCN3S(=O)(=O)c3cccc(C(F)(F)F)c3)CC2)CC1", "human B1R receptor (hB1R) (Homo sapiens, UniProt P46663)", "Not fulfilled"),
]

Next compound, please.
Q) Check if inhibition at 10 µM >= 60% (inclusive). Item: `Cc1cc(S(=O)(=O)N2CCC[C@H]2CCCS(=O)(=O)N2[C@@H]3CC[C@H]2C[C@H](Oc2ccncc2)C3)c(C)cc1Cl`
A) Fulfilled

* * *

Let's look at some compounds and their measured inhibition at 10 µM.
target: human B1R receptor (hB1R) (Homo sapiens, UniProt P46663); construct: expressed in transfected cells; host or cells: CHO K1 cells; test: Functional investigation on the bradykinin 1 receptor (B1R), FLIPR Ca2+ assay, hB1R cells; format: cell-based; details: test substance 10 μM; CHO K1 cells transfected with human B1R gene; Fluo-4 Ca2+ signal; agonist Lys-Des-Arg9-bradykinin at EC80; % of maximum achievable inhibition; read-out: B1R antagonism, human [10 μM] % inhibition
Counter-ions that a name gives are not always drawn.
Could you give me the number in %? Just the number is fine.

These solved cases illustrate the format of a correct answer.
# compound, unit.of.measure, inhibition at 10 µM
data = [
    ("O=S(=O)(CCC1CCN(S(=O)(=O)c2cccc(Cl)c2Cl)C1)N1CCN(c2ccncc2)CC1 (stereo not drawn) [Example 21, hydrochloride]", "%", 97),
    ("O=S(=O)(CCC[C@@H]1CCCN1S(=O)(=O)c1ccc(Cl)c2ccccc12)N1CCC2(CCN(c3ccncc3)CC2)CC1", "%", 77),
]

Q) inhibition at 10 µM for Cc1cccc(Cl)c1S(=O)(=O)N1CCC[C@H]1CCCS(=O)(=O)N1CCC2(CCN(c3ccncc3)C2)C1 (stereo partly drawn) ?
A) 99

Q) Also COc1cc(C)c(S(=O)(=O)N2CCCC(CCS(=O)(=O)N3CCC(CCN4CCCC4)CC3)C2)c(C)c1C (stereo not drawn) [Example 39, hydrochloride] ?
A) 44

Q) Also COc1cc(C)c(S(=O)(=O)N2CCC[C@H]2CCCS(=O)(=O)N2CCC3(CCN(c4ccncc4)C3)C2)cc1C (stereo partly drawn) ?
A) 96

These data points were gathered from patent US8119805B2.
